Target or system NCI-H460 lung; recorded quantity GI50.

These solved cases illustrate the format of a correct answer.
1) COc1ccc(/C(C)=C(\c2ccc(Cl)cc2)c2ccc(OCCN3CCCC3)cc2)cc1F 2.1 µM
2) CCOC(=O)/C(=C/c1ccc([N+](=O)[O-])cc1)C(=O)c1ccccc1 2.69 µM

So, O=C(O)c1ccc2c(c1Nc1ccccc1)C(=O)c1ccccc1C2=O ? Its GI50 was 27.3 µM

So, N#CC(=S)Nc1ccc(Cl)c(Cl)c1 ? Its GI50 was 16 µM

----------
Parameter: TGI. Scope: all listed entries.
tested on: PC-3 prostate; assay: NCI tumour cell line growth inhibition, 48 h

These solved cases illustrate the format of a correct answer.
molecule	reportedValue
C[C@]12CCC(=O)C=C1CC[C@@H]1[C@@H]2CC[C@]2(C)C(=O)[C@H](n3ccnc3)C[C@@H]12	> 100 µM
CN(c1ccccc1)S(=O)(=O)c1ccccc1[N+](=O)[O-]	> 100 µM
O=C1/C(=C\C(Cl)=C/c2ccc([N+](=O)[O-])cc2)SC(=S)N1CCc1ccc(O)cc1	0.845 µM

So, CC1=C2C(=O)OCC23C=COC3(C)O1 (configuration not stated) ? Its TGI was > 100 µM

So, C=C1C(=O)O[C@H]2[C@H]1CC/C(Cn1cc(Cn3ccc4ccccc43)nn1)=C\CC[C@@]1(C)O[C@@H]21 ? Its TGI was 2.98 µM

So, COC(=O)C[C@@H]1C(C)(C)[C@@H]2O[C@@]34C[C@@H]2C(=O)[C@]1(C)[C@H]3CC[C@@]1(C)[C@H](c2ccoc2)OC(=O)C[C@]14O ? Its TGI was > 100 µM

So, CC1(C)C=C(/C=N/Nc2ccc([N+](=O)[O-])cc2)C(C#N)=C(O)C1(C#N)C#N ? Its TGI was > 100 µM

So, NS(=O)(=O)c1ccc(NNc2c3ccccc3nc3ccccc23)cc1 ? Its TGI was 16.1 µM

So, CN1C2CCC1C(C(O)c1ccccc1[N+](=O)[O-])C(=O)C2 (configuration not stated) ? Its TGI was > 100 µM

So, O=c1c2cc([N+](=O)[O-])ccc2n(Cc2ccccc2)n1Cc1ccccc1 ? Its TGI was 31 µM

So, Nc1ncnc2c1nc(-c1ccccc1)n2C1OC(CO)C(O)C1O (configuration not stated) ? Its TGI was > 100 µM

Values compiled from PubChem BioAssay (NCI).
